- Test system: LXRa:RXRa (NR concentration 270 nM, RXRa partner concentration 90 nM)
- protocolText: PBM binding z-score (relative to random genomic background probes); higher = stronger binding; sequences stand for … in GC…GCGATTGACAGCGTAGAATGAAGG
Respond with class 1 for PBM binding z-score values of 0.3 and above, class 0 for values below.

Kindly determine if PBM binding z-score recorded for `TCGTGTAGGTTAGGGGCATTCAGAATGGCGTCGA` is above or exactly 0.3. class 1

Evaluate `TCTAGCAGGCCAGACGGTCACTCAAGAGGTACGG` : PBM binding z-score at minimum 0.3? class 0

Please indicate if the recorded PBM binding z-score for `ATCTCTAGGTAAGACTCAGTTTAGTGAAGAACGC` meets or exceeds 0.3. class 1

Test whether the sequence `ACAGATAGGTGAGTGAAGGTAACTCAGCTGGACG` records PBM binding z-score of 0.3 or higher. class 0

Answer whether PBM binding z-score of `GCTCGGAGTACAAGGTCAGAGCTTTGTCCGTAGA` is greater than or equal to 0.3. class 1

Exam item: decide whether the reported PBM binding z-score for `TCTGCTAGGTCAGTTGGTCATCTAACGAGCTGCC` is at least 0.3. class 1

Test whether the sequence `GGAACGAGGGCATTCGAGTGGATAGCATGGCGAT` records PBM binding z-score of 0.3 or higher. class 1

* * *

- Tested on: LXRb:RXRa (NR concentration 270 nM, RXRa partner concentration 90 nM)
- protocolText: PBM binding z-score (relative to random genomic background probes); higher = stronger binding; sequences stand for … in GC…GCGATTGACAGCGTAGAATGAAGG
Quick rule: PBM binding z-score of at least 1 means fulfilled, below that means not fulfilled.

In plain terms: is recorded PBM binding z-score at least 1 for `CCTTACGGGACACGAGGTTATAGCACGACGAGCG` ? not fulfilled

Identify whether the reported PBM binding z-score of the following sequence is 1 or greater: `CCTTACGGGTCACTCCAGGATATAGCATCGGAGT` fulfilled

Check if PBM binding z-score >= 1 (inclusive). Item: `CCTTACGGATCACTGACAGGTTATAGCATTTGGA` not fulfilled

In plain terms: is recorded PBM binding z-score at least 1 for `GCAGACAGGTGAAACGCAGGTAAATCAGGGTGGC` ? not fulfilled

Exam item: decide whether the reported PBM binding z-score for `GCTGCTAGGTCAACTGATGGTCAGCTTAAGCTCG` is at least 1. fulfilled

Item `AGTCTAAGTTCATCTAGGTAACGTAAGATATGCT` with PBM binding z-score of 1 or above? fulfilled

Identify whether the reported PBM binding z-score of the following sequence is 1 or greater: `ACTAGCAGGCCAAGGGTCATTCAAGATTAGTCCG` fulfilled

Identify whether the reported PBM binding z-score of the following sequence is 1 or greater: `TCTAGCAGGCCAGAGGGTCGCTCAAGAGGTACGG` not fulfilled

Kindly determine if PBM binding z-score recorded for `CCTAGTCGGTCAGGAGGTCACACACCGGATATGA` is above or exactly 1. fulfilled

Item `GTACCAAGGTGTATAGGTCGTTGATGAGTAGGCG` with PBM binding z-score of 1 or above? not fulfilled

Quick check, PBM binding z-score >= 1? `CCTCGGAGGACAACAGGAGGTCAGTGCTGCCAGA` fulfilled

Is PBM binding z-score for `CCTCGGAGGACAACAGGAGGTCTGAGCTGCCAGA` at or above 1? not fulfilled

Is the recorded value of PBM binding z-score equal to or greater than 1 for this sequence? `CGTCCAAAGTCAAGGTCAGTGAAAGAGACTCGAA` fulfilled

Please check the record `ACTAGCAGGCCAAGTTTGAGTCACTCAAACAAAG` and state if its PBM binding z-score is at or above 1. not fulfilled

Reported PBM binding z-score reaches at least 1 for `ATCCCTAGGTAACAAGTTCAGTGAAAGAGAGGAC` ? not fulfilled

Entry `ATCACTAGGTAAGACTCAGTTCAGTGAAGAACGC` : is its PBM binding z-score no less than 1? not fulfilled

Reported PBM binding z-score reaches at least 1 for `TCTTGGAGATCAGCAGGTTAAGAAAGCTGGCCAA` ? not fulfilled

For this sequence, is measured PBM binding z-score 1 or higher? `TCTGCTAGGTCAGTTCGTCAGCTAACGAGCTGCC` not fulfilled
